The measured values listed here are drawn from patent US20260258084A1.

compounds and their reported remaining at 4 h, 1 µM
# Tested on: Pancreatin
# experimental-details: Protease stability in simulated intestinal fluid (Pancreatin-SIF, FaSSIF)
# Type: in vitro ADME
# experimental-context: 240 min, 1 μM peptide, 37° C., read-out: FaSSIF 240 (min), remaining percent of peptide
Starred links: 1 amine or outer side, 2 acyl side, 3 side chain; linkers in the order of their positions; H or OH if unused. Positions of bridges follow the written chain, without caps; N, C: chain ends. Non-standard residues stand in square brackets, D forms with d. Residues, ends and D or L forms follow the SMILES beside them. X3 = CN(CCCCC(=O)N[C@@H](CS[*:2])C(=O)[*:1])[*:3]; 2Nal = N[C@@H](Cc1ccc2ccccc2c1)C(=O)O; AEF = NCCOc1ccc(C[C@H](N)C(=O)O)cc1; αMeL = CC(C)C[C@](C)(N)C(=O)O; Aib = CC(C)(N)C(=O)O; Ava = NCCCCC(=O)O
readout-label: remaining at 4 h, 1 µM (%)

[
  {
    "compound": "CC(=O)N[C@H]1CCCCNC(=O)[C@@H]2CSSC[C@H](NC(=O)[C@H](CCC(N)=O)NC(=O)[C@H](Cc3c[nH]c4ccccc34)NC1=O)C(=O)N[C@@H](Cc1ccc(OCCN)cc1)C(=O)N[C@@H](Cc1ccc3ccccc3c1)C(=O)NC(C)(C)C(=O)N[C@H](C(=O)N[C@@H](CC(N)=O)C(=O)NCC(N)=O)CCC(=O)N(C)CCCCC(=O)N2 [compound 15] (Ac-KWQC[AEF][2Nal][Aib]ENG-NH2; linker 1-4-8 via X3)",
    "readout-label": "remaining at 4 h, 1 µM",
    "endpoint-value": 43
  },
  {
    "compound": "COc1ccc(C[C@@H]2NC(=O)[C@@H]3CSSC[C@H](NC(=O)CCCCNC(=O)CC[C@@H](C(=O)N[C@@H](CC(N)=O)C(=O)NCC(N)=O)NC(=O)C(C)(C)NC(=O)[C@H](Cc4ccc5ccccc5c4)NC2=O)C(=O)N[C@@H](CC(N)=O)C(=O)N[C@@H]([C@@H](C)O)C(=O)N[C@@H](Cc2c[nH]c4ccccc24)C(=O)N[C@@H](CCC(N)=O)C(=O)N3)cc1 [compound 4] ([Ava]CNTWQCY(Me)[2Nal][Aib]ENG-NH2; disulfide 2-7; lactam N-11)",
    "readout-label": "remaining at 4 h, 1 µM",
    "endpoint-value": 73
  },
  {
    "compound": "CC(=O)N[C@H]1CCCCNC(=O)[C@@H]2CSSC[C@H](NC(=O)[C@H](CCC(N)=O)NC(=O)[C@H](Cc3c[nH]c4ccccc34)NC1=O)C(=O)N[C@@H](Cc1ccc(OCCN)cc1)C(=O)N[C@@H](Cc1ccc3ccccc3c1)C(=O)N[C@@](C)(CC(C)C)C(=O)N[C@H](C(=O)N[C@@H](C)C(=O)NCC(N)=O)CCC(=O)N(C)CCCCC(=O)N2 [compound 18] (Ac-KWQC[AEF][2Nal][αMeL]EAG-NH2; linker 1-4-8 via X3)",
    "readout-label": "remaining at 4 h, 1 µM",
    "endpoint-value": 76
  }
]
